- System: SN12C renal
- METHOD DESCRIPTION: NCI-60 one-dose screen, 48 h (100 = growth as untreated, 0 = no growth, -100 = all killed)
- EXPERIMENTAL CONTEXT: 10 µM unless noted
The panel holds about 83,000 compounds, 20% with a hit somewhere; the sample as a whole holds those more often.
Please respond with reported growth for every item in the list.
Numbers only, in %.

Solved cases below.
                                   molecule  reported_metric  value_units  reported_measurement
0  O=C1[C@H]2Cc3c([nH]c4ccccc34)[C@@H](c3ccc(Br)cc3)N2C(=O)CN1C1CCN(Cc2ccccc2)CC1           growth            %                  12.9
1  CCCCN1C(=O)/C(=c2\sc3n(c2=O)C2C(NN=3)N(CC)C(=O)N2CC)c2cc(Cl)ccc21 (stereo not drawn)           growth            %                    82

Next up:
Param readout= growth; system= SN12C renal; entry= "CCOC(=O)c1sc(N)c(C(=O)OCC)c1C" ; returns value. 54.9

----------
- Tested on: HOP-62 NSCLC
- METHOD DESCRIPTION: NCI-60 one-dose screen, 48 h (100 = growth as untreated, 0 = no growth, -100 = all killed)
- EXPERIMENTAL CONTEXT: 10 µM unless noted
- Procedure: Growth inhibition of the HOP-62 human Non-Small Cell Lung tumor cell line is measured as a screen for anti-cancer activity. Cells are grown in 96 well plates and exposed to the test compound for 48 hours. Compounds are tested at a single concentration, which is 10^-5 M for most compounds. The reported endpoint is percent growth (GI% or GIPRCNT), where numbers from 0 - 100% represent growth inhibition, and numbers from -100% - 0 represent cell death. […]
Compounds without any hit were thinned out: in the full panel of roughly 83,000, 20% have a hit.
Provide the recorded growth for the entries that follow.
Answers are plain numbers, in %.

Consider the following illustrative entries.
>>> print(df.to_string())
                                   compound  value_units  reported_measurement
0  Fc1ccc(-c2nc(C(Cl)Cl)nc3cc(-c4ccccc4)nn23)cc1            %                 -19.5
1  CCOC(=O)c1c(Nc2ccccc2)nn2c(N)c(C#N)c(-c3ccc(F)cc3)nc12            %                  91.7
2  Fc1ccc(-c2cc3nc(C(Cl)Cl)nc(-c4ccccc4)n3n2)cc1            %                 -36.9
3  Cc1ccc2c(n1)C(=O)C(Cl)=C(Nc1cccc(C(C)C)c1)C2=O            %                  89.1

Hello, I would appreciate it if you could give growth for each entry below.
1. O=C(N/N=C/c1ccco1)c1[nH]c2ccc(Br)cc2c1-c1ccccc1
2. Cc1nc(-c2cc3ccccc3oc2=O)ccc1C(=O)/C=C/c1ccc(N2CCOCC2)cc1
3. N/C(=N\c1nc2c(Br)cccc2s1)C(Br)Br
4. Cc1cccc2sc(/N=C(\N)C(Br)Br)nc12
5. CCN1CCN(/C(=N\c2sc(-c3ccccc3)nc2-c2ccccc2)c2ccccc2)CC1
6. N[C@@H](Cc1cn(-c2c3ccccc3nc3ccccc23)nn1)C(=O)O

1: 35.4; 2: 90.8; 3: 39.8; 4: 67; 5: 95.4; 6: 96.6

Lab note: each compound below needs its growth filled in.
1. Cc1c(NC(=O)CSc2nc3sc4c(c3c(=O)n2-c2ccc(Cl)cc2)CCCC4)c(=O)n(-c2ccccc2)n1C
2. CCCC(=O)NC(c1cccnc1)c1cc(C)c2cccnc2c1O (stereo not drawn)
3. O=C(CN1C(=O)/C(=C/c2ccccc2)SC1=S)N1CCOCC1
4. Cn1c(SCC(=O)c2cccs2)nc2ccccc2c1=O
5. O=C(N/N=C/c1ccc([N+](=O)[O-])s1)c1[nH]c2ccc(Br)cc2c1-c1ccccc1

[99.3, 34.4, 97, 85.9, 27.2]

Please state, for each entry, its recorded growth.
1. COc1cccc(-c2nn(-c3ccccc3)cc2-c2ccnc(N3CCN(C(=O)Nc4ccc(F)cc4)CC3)c2)c1
2. Cc1nc2cnc(N)c(C#Cc3cncc(C(=O)Nc4ccc(Cl)c(C(F)(F)F)c4)c3)c2nc1C
3. CCOc1ccc2nc(NC(=O)c3ccc(C(F)(F)F)cc3)sc2c1
4. CNC(=O)c1cc(-c2ccc(NC(=O)Nc3ccc(N4CCOCC4)c(C(F)(F)F)c3)cc2)nc2cccnc12
5. Nc1nc(N)c2c(n1)NC(c1ccc(C(F)(F)F)cc1)CC(c1ccc(Nc3nc(NCCO)nc(Nc4ccc(Cl)cc4)n3)cc1)=N2 (stereo not drawn)

1: 102; 2: 56.8; 3: 118; 4: 80.6; 5: 71.7

Please supply growth for each of the following items, keeping them in order.
1. COc1ccccc1/C=C/C=N/NC1=NC2C(S1)N(C)C(=O)N2C (stereo not drawn)
2. Cc1ccc2ccc3ccc(C)nc3c2n1.Cc1ccc2ccc3ccc(C)nc3c2n1.Oc1c(Cl)cc(Cl)c2ccc(CN3CCCCC3)nc12.[Ru]
3. N#Cc1nc(-c2ccccc2)oc1S(=O)(=O)N1CCCCC1

1. 35.6
2. -57.2
3. 110
